- ASSAYED TARGET: Proteasome subunit beta (Trypanosoma cruzi)
- ASSAY DETAILS: Trypanosoma cruzi proteasome chymotrypsin-like activity (TcProtChymo) assay.
- Format: functional
- Parameters: scale not given: in the data most compounds retested in dose-response had high values
- COND: 9.37 µM
As shown below, each of these compounds has a reported Percent Effect value.
ATTRIBUTE MEASURED: Percent Effect (%)

>>> observed("O=C(C1CCOC1)N1C[C@H]2CN(Cc3nccs3)C[C@H]2C1 (some centres not stated)")
15.7
>>> observed("CSCc1cccc(C(=O)N2CCN(CC(C)O)CC2)c1 (configuration not stated)")
11.8
>>> observed("O=C1[C@@H]2CCN(Cc3ccoc3)C[C@@H]2OCCN1Cc1cccnc1")
11.4
>>> observed("Cc1cnn(CC2CCCCN2C(=O)c2ccc3nnc(C)n3c2)c1 (configuration not stated)")
15.9
>>> observed("CCc1nnc(CN2CCN(C(=O)c3cc4ccccc4[nH]3)CC2)o1")
2.83
>>> observed("O=C(Cc1ccc2c(c1)CCO2)N1CCCCC1Cn1cccn1 (configuration not stated)")
7.19
>>> observed("Cc1ccc(S(=O)(=O)NC2CNC(=O)C2)cc1C (configuration not stated)")
3.9
>>> observed("O=S(=O)(Cc1ccccc1F)NCCN1CCOCC1")
12.6
>>> observed("Cc1cnn(CCNCC(O)COc2ccc(C#N)cc2)c1 (configuration not stated)")
8.44
>>> observed("COC(=O)CCNC(=O)C1CC(=O)N(C2CCCC2)C1 (configuration not stated)")
5.83
>>> observed("COCCc1noc(CN2CCc3nn(C(C)C)c(=O)cc3C2)n1")
6.18
>>> observed("CN1CC(=O)N(c2cccc(F)c2)CC12CCN(Cc1cccnc1)C2 (configuration not stated)")
12.9
